Items are presented alongside their recorded log10 of GI50 at 72 h.
experiment: Cytotoxicity against MDCK cells after 72 hrs by MTT assay; assay type: cell-based, Canis lupus familiaris; settings: dog
Endpoint label: log10 of GI50 at 72 h (log10 of the value in µM)

{"columns": ["Molecule", "log10 of GI50 at 72 h"],
 "data": [
  ["CN1CCN(c2ccc3[nH]c(-c4ccc5[nH]c(-c6ccc(O)cc6)nc5c4)nc3c2)CC1 [HOECHST 33258]", 2.20],
  ["CC(C)CNC(=N)c1ccc(-c2sc(-c3ccc(C(=N)NCC(C)C)cc3)c3c2OCCO3)cc1", 1.78],
  ["c1cc(-c2sc(-c3ccc(C4=NCCCN4)cc3)c3c2OCCO3)ccc1C1=NCCCN1", 1.91],
  ["N=C(N)c1ccc(-c2sc(-c3ccc(C(=N)N)cc3)c3c2OCCO3)cc1", 0.85],
  ["CC(C)NC(=N)c1ccc(-c2sc(-c3ccc(C(=N)NC(C)C)cc3)c3c2OCCO3)cc1", 1.81],
  ["N=C(NC1CCCC1)c1ccc(-c2sc(-c3ccc(C(=N)NC4CCCC4)cc3)c3c2OCCO3)cc1", 1.70],
  ["Cl.Cl.c1cc(-c2sc(-c3ccc(C4=NCCN4)cc3)c3c2OCCO3)ccc1C1=NCCN1", 1.23],
  ["N=C(Nc1ccccc1)c1sc(C(=N)Nc2ccccc2)c2c1OCCO2", 1.90]
]}
